assay: blockers of ER-stress CHOP reporter expression – cell-based, unfolded protein response, luciferase reporter, primary screen (AID 2732); settings: CHO-K1 CHOP-promoter luciferase, tunicamycin-induced, 15-18 h; at 10 µM; hits give high values;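 also: 0% = tunicamycin plus vehicle and 100% = wells without tunicamycin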
Out of some 220,000 compounds screened, about 8,200 (3.7%) were called active. Many of the other results were omitted from the sample, so actives are more common in it than they were.
Experimental endpoint: inhibition (%)
Numbers only; they are read as %.

Data request, read-out inhibition, for Cc1onc(-c2c(Cl)cccc2Cl)c1C(=O)NNC(=O)c1c(-c2c(Cl)cccc2Cl)noc1C -2.75

Let us now turn to CCOC(=O)c1sc(=S)n2c1[nH]c(=O)c1ccc(C(=O)OC)cc12 90.7

Let us now turn to CCOC(=O)Cn1c(N)c(C(=O)OC)sc1=S 25.2

Let us now turn to O=c1c2ccccc2c(-c2ccc(Br)cc2)nn1Cc1ccccc1 36.9

Let us now turn to O=c1c2ccccc2c(-c2ccccc2)nn1-c1ccccn1 38.6

Let us now turn to COc1ccc(NS(=O)(=O)c2ccc(NC(=S)NC(=O)/C=C/c3ccc(C)cc3)cc2)nn1 95.5

---

test: blockers of ER-stress CHOP reporter expression – cell-based, unfolded protein response, luciferase reporter, primary screen (AID 2732); conditions: CHO-K1 CHOP-promoter luciferase, tunicamycin-induced, 15-18 h; at 10 µM; hits give high values;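 also: 0% = tunicamycin plus vehicle and 100% = wells without tunicamycin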
Among all 220,000 compounds or so, about 8,200 (3.7%) were called active. For the sample, actives were picked, then their nearest neighbours and some compounds at random.
Use met when the recorded inhibition is no lower than 10%; use not met when it is lower.

Decide: is the reported value of inhibition for CCOc1ccc2sc(NS(=O)(=O)c3ccc(N)cc3)nc2c1 equal to or greater than 10%? not met

Let us now turn to O=S(=O)(Cc1noc(-c2ccc(OC(F)(F)F)cc2)n1)c1ccc(F)cc1 not met

Let us now turn to COc1ccc(-c2csc(N3CCN(Cc4ccc5c(c4)OCO5)CC3)n2)cc1 met

Let us now turn to O=C(O)/C=C/c1ccc2c(c1)OCCO2 not met

Let us now turn to CC(/C=C/c1ccccc1)=N\NC(=O)C1CC1(C)c1ccccc1 (stereo unspecified) met

Let us now turn to Cn1c2c(c(=O)n(C)c1=O)C(c1cccc(F)c1)C(C#N)=C(N)O2 (stereo unspecified) not met

Let us now turn to CS/C(=C\C(=O)c1ccco1)Nc1ccccc1Cl not met

Let us now turn to CCCc1c(C(=O)O)cnn1-c1ccc(Cl)cc1 not met

Let us now turn to Cc1ccc(CNC(=O)CC2Sc3ccccc3NC2=O)cc1 (stereo unspecified) not met

Let us now turn to Cc1noc(C)c1C(=O)OCC(=O)N1CCN(S(=O)(=O)c2ccc3ccccc3c2)CC1 not met

Let us now turn to CC1(C)Oc2ccc3ccc(=O)oc3c2/C(=C/NCCO)C1=O not met

Let us now turn to C/C=C\C=C\C(=O)N1CC2(CC(c3cccc(NC(=O)/C(C)=C\C)c3)=NO2)C[C@H]1C(N)=O (stereo partly specified) not met

Let us now turn to CCOC(=O)CNC(=O)CSc1nc2cccnc2n1CC not met

Let us now turn to C/C=C(/C)C(=O)O[C@@H]1c2cc3c(c4c2[C@@]2(CO4)C(=O)C(OC)=C(OC)C=C2C[C@@H](C)[C@H]1C)OCO3 not met

Let us now turn to CCCCCCc1cc2cc(-c3nnc(-c4ccccc4)o3)c(=O)oc2cc1O met

Let us now turn to C/C(=N\OC(=O)c1ccccc1)c1c(C)nc2cc(C)ccn12 met

Let us now turn to COC(=O)c1cc(N2CCNCC2)nc2ccccc12 met

Let us now turn to O=C(CSc1ccc(/C=N/NC(=O)c2cccc(F)c2)o1)Nc1ccccc1 not met

Let us now turn to COC(=O)c1cc(C)sc1NC(=O)CC1Nc2ccccc2NC1=O (stereo unspecified) met

Let us now turn to CCOc1cc(/C=C(\C#N)c2nc(-c3cccs3)c(NC(C)=O)s2)ccc1O not met

Let us now turn to CCOC(=O)c1ccc2c(c1)nc(C)n2CC not met

Let us now turn to Cc1c(CCC(=O)O)c(=O)oc2cc3occ(-c4ccccc4)c3cc12 met

Let us now turn to CC1(C)CCSC(/C=C/c2ccccc2)=N1 not met

Let us now turn to O=S(=O)(Nc1n[nH]c(C(F)(F)F)n1)c1ccccc1 met

Let us now turn to CCc1cc(C(=O)OC)c(NC(=O)CC2Sc3ccc(C(F)(F)F)cc3NC2=O)s1 (stereo unspecified) met

Let us now turn to COc1cc(/C=N/Nc2nc3ccccc3s2)ccc1O not met

Let us now turn to CCCCCCCN=C(C)c1ccccc1O not met

Let us now turn to Cn1nc(C(F)(F)F)c(-c2ccc(F)cc2)c1NC(=O)CSCC(=O)O not met

Let us now turn to Cc1n[nH]c(=S)n1/N=C/c1ccc(Br)o1 met

Let us now turn to O=C(NCc1cccnc1)C(=O)Nc1nc(-c2ccccc2)cs1 met

Let us now turn to Cc1ccccc1-c1n[nH]c(=S)n1C not met

Let us now turn to Cc1cccc(OP(=O)(Nc2c(C)n(C)n(-c3ccccc3)c2=O)Oc2cccc(C)c2)c1 met

Let us now turn to O=C(CCNc1n[nH]c(=O)[nH]c1=O)N/N=C\c1ccc(Br)cc1 not met

Let us now turn to O=C(Nc1ccc(F)cc1)c1cc2c(s1)CCCC2 met

Let us now turn to CC(=O)Nc1ccc(/C=C/C(=O)c2ccccc2)cc1 not met

Let us now turn to Clc1ccc(CSc2nnc3c(n2)[nH]c2ccccc23)cc1 met

Let us now turn to CCCn1c(C(O)c2ccc(OCC)cc2)nc2ccccc21 (stereo unspecified) met

Let us now turn to COc1ccc(S(=O)(=O)Nc2c(C)n(C)n(-c3ccccc3)c2=O)cc1 not met

Let us now turn to Cc1ccc(-c2cc(C(=O)N/N=C/C=C/c3ccccc3)n[nH]2)o1 met

Let us now turn to O=C(Nc1ccc(S(=O)(=O)N2CCOCC2)cc1)c1ccc2ncsc2c1 not met

Let us now turn to CN(c1ccc2nc3ccccc3c(=O)n2n1)C1CCCCC1 met

Let us now turn to O=C(NNC(=O)c1csc(-c2cccnc2)n1)Nc1ccc(Cl)cc1 not met

Let us now turn to Cc1c(C(=O)N(Cc2ccccc2)Cc2cccnc2)cnn1-c1ccc(F)cc1 not met

Let us now turn to COc1ccc(-c2csc(NC3OC(=O)c4ccccc43)n2)cc1 (stereo unspecified) not met

Let us now turn to C/C(=N\NC(=O)c1cc2c(s1)CCC(C)C2)c1cccnc1 (stereo unspecified) not met

Let us now turn to CN(C(=O)CSc1nncc2ccccc12)C1CCCCC1 not met
